- testedSystem: human recombinant acetylcholinesterase (hrAChE) (Homo sapiens, UniProt P22303)
- Construct: purchased Sigma-Aldrich, St. Louis, MO, USA
- Sequence (P22303 32-614): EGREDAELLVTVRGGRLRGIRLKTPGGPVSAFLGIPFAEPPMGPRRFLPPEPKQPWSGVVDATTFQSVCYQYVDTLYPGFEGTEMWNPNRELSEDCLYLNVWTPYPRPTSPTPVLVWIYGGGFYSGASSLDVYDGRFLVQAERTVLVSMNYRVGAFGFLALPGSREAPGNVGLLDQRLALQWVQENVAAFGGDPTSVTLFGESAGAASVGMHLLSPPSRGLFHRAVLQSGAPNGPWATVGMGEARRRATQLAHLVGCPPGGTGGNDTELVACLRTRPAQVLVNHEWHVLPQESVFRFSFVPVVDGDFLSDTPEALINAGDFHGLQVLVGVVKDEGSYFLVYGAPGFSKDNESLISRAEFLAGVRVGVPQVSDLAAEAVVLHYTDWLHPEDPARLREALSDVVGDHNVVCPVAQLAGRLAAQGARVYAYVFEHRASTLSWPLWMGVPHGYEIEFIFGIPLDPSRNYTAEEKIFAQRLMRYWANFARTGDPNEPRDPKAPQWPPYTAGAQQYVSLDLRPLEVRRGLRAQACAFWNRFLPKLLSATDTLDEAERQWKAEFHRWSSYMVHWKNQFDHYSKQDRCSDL
- assayProcedure: Cholinesterase inhibition assay (Ellman's method), hrAChE
- Assay type: biochemical
- setupConditions: Ellman's method, 25 °C, pH 7.4
measurementKind: IC50

## Input So what does the record say about IC50 for COc1cccn(O)c1=S [Compound L1, 1-hydroxy-3-methoxypyridine-2(1H)-thion] ?
## Output > 180 µM

* * *

- testedSystem: electric eel acetylcholinesterase (eeAChE) (Electrophorus electricus)
- Construct: purchased Sigma-Aldrich, St. Louis, MO, USA
- Sequence (O42275 24-633): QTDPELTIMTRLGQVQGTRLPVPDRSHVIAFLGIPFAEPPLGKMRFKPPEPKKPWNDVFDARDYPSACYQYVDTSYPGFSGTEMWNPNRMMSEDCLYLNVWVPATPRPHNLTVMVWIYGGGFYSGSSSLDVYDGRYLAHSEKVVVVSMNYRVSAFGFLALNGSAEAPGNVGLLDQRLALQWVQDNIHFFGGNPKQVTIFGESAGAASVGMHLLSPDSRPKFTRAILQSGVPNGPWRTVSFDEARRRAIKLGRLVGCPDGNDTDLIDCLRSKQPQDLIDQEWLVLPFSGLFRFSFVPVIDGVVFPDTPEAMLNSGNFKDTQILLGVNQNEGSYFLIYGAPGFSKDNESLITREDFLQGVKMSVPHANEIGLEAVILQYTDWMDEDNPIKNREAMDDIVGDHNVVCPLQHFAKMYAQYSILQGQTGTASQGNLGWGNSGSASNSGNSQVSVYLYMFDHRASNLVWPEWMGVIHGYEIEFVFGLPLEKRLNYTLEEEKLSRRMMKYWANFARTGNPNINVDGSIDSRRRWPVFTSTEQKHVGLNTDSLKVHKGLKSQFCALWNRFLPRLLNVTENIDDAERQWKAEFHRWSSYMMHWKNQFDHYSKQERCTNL
- assayProcedure: Cholinesterase inhibition assay (Ellman's method), eeAChE
- Type: biochemical
- setupConditions: Ellman's method, 25 °C, pH 7.4
measurementKind: IC50 (µM)
Please give a number only; it is taken to be in µM.

## Input Form field: reported IC50 of CN(C)C(=O)Oc1cccc([N+](C)(C)C)c1 [Neostigmine, neostigmine methyl sulphate, reference compound]
## Output 3.9
